# GI50 per record follows
Tested on: MDA-MB-435
Protocol details: NCI tumour cell line growth inhibition, 48 h
Activity calls are given as the source filed them. Cut-off read from the data, not from the text of the source: active = GI50 up to about 1.1 µM and inactive = higher.
Measured endpoint: GI50

>>> reported_result("CN(C)CCCOC(=O)C(O)(Cc1ccccc1)C1CC1 (stereo not drawn)")
"> 100 µM (inactive)"
>>> reported_result("COc1cc(/C=C2/SC(c3ccccc3)N(c3cccc(Cl)c3)C2=O)cc(OC)c1OC (stereo not drawn)")
"17.6 µM (inactive)"
>>> reported_result("CC[C@H]1C=CCC[C@@]2(C[C@@H]3CC[C@@H]4[C@H](C(=O)OCCCCCCCCCCCCCCCC(=O)N(CCCNC(C)=O)C[C@H](CCNC(C)=O)OC(C)=O)[C@]5(CCC[C@@H](C)O5)NC(=[N+]34)N2)O1")
"0.0432 µM (active)"
>>> reported_result("O=C(Cn1c(=O)oc2ccc(C(=O)c3cccc(Cl)c3)cc21)c1ccccc1")
"> 100 µM (inactive)"
>>> reported_result("CC(C)S(=O)(=O)ON1C(=O)c2ccc(N(C)C)cc2C1=O")
"2.04 µM (inactive)"
>>> reported_result("NC(Cc1cccnn1)C(=O)O (stereo not drawn)")
"> 100 µM (inactive)"
>>> reported_result("CC(C)(C)[Si](C)(C)OCC1OC(n2cnc3c(N)ncnc32)C2OC(=S)OC12 (stereo not drawn)")
"19.9 µM (inactive)"
>>> reported_result("C=C(NC(=O)C(=C)NC(=O)c1csc(C2=NC3c4csc(n4)C4NC(=O)c5csc(n5)C(C(C)(O)C(C)O)NC(=O)C5CSC(=N5)/C(=C/C)NC(=O)C(C(C)O)NC(=O)c5csc(n5)C3(CC2)NC(=O)C(C)NC(=O)C(=C)NC(=O)C(=C)NC(=O)C(C(C)C)NC2C=Cc3c(C(C)O)cc(nc3C2O)C(=O)OC4C)n1)C(N)=O (stereo not drawn)")
"0.743 µM (active)"

* * *

Test system: UACC-62
Protocol details: NCI tumour cell line growth inhibition, 48 h
Active and inactive are the calls of the source. Rule as the data show it: active = GI50 up to about 1.1 µM and inactive = higher.
Measured endpoint: GI50

>>> reported_result("CC1(c2ccc(Cl)cc2)C2C(=O)NC(=O)C1C(=O)NC2=O (stereo unspecified)")
"> 100 µM (inactive)"
>>> reported_result("Nc1c2c(nc3ccccc13)-c1ccccc1NCCC2")
"18.3 µM (inactive)"
>>> reported_result("Cc1c(-c2ccccc2)[nH]c2cn[nH]c(=O)c12")
"59.2 µM (inactive)"
>>> reported_result("CC(=O)OCCCC(NC(=O)OC(C)(C)C)C(=O)NC(CCCOC(C)=O)C(=O)NC(Cc1ccc([N+](=O)[O-])cc1)C(=O)NCC(=O)OCc1ccccc1 (stereo unspecified)")
"15.2 µM (inactive)"
>>> reported_result("Cc1cc(Cl)ccc1NC(=O)C(=O)Cc1nc2ccc(C(=O)c3ccccc3)cc2nc1O")
"70 µM (inactive)"
>>> reported_result("COC(=O)C(Cc1ccccc1)NP(=O)(O)OCC1OC(n2cc(F)c(=O)[nH]c2=O)CC1O (stereo unspecified)")
"7 µM (inactive)"
>>> reported_result("CCOC(=O)/C=C\\[C@H]1OC(C)(C)O[C@H]1[C@H](O)[C@H]1COC(C)(C)O1")
"23.7 µM (inactive)"
>>> reported_result("CCOc1ccccc1NC(=O)CCC(=O)NN")
"> 100 µM (inactive)"
>>> reported_result("O=C(OCc1ccccc1CN1CCOCC1)c1ccc(Br)cc1")
"55 µM (inactive)"
>>> reported_result("O=S(=O)(N/C(=N\\O)Nc1ccc(Cl)cc1)c1cc(S(=O)(=O)c2ccccc2)cs1")
"14.8 µM (inactive)"
>>> reported_result("Ic1ncnc2c1ncn2C1CCCO1 (stereo unspecified)")
"> 100 µM (inactive)"
>>> reported_result("Cc1ccc([S+]([O-])c2ccccc2[N+](=O)[O-])cc1 (stereo unspecified)")
"> 100 µM (inactive)"
>>> reported_result("[N-]=[N+]=NC1(c2ccccc2)C(=O)c2cccc3c2N(CCC3)C1=O (stereo unspecified)")
"92.7 µM (inactive)"
>>> reported_result("CC(C)(C)NC(=O)[C@H]1CC[C@H]2[C@@H]3CC=C4NC(=O)CC[C@]4(C)[C@H]3CC[C@]12C")
"> 100 µM (inactive)"
>>> reported_result("O=CC1CCCc2ccccc21 (stereo unspecified)")
"> 100 µM (inactive)"
>>> reported_result("O=[N+]([O-])c1cccc(-c2oc(/C=N/c3ccccc3)c([N+](=O)[O-])c2-c2cccc([N+](=O)[O-])c2)c1")
"> 100 µM (inactive)"
>>> reported_result("CC1(C)CC(C2=NCCO2)CC(C)(C)N1")
"> 100 µM (inactive)"
>>> reported_result("CN1CCCC(OC(=O)c2cc3cc(CCl)ccc3oc2=O)C1 (stereo unspecified)")
"17.3 µM (inactive)"
>>> reported_result("Cc1ccc(C(=O)c2[nH]c(Nc3cc(C)ccn3)c(C(=S)Nc3ccccc3)c2N)cc1")
"> 100 µM (inactive)"
>>> reported_result("O=C(Nc1cc(Cl)ccc1Cl)c1cc2cccc(Br)c2oc1=O")
"> 100 µM (inactive)"
>>> reported_result("O=P1(O)c2ccccc2Nc2cc(C(F)(F)F)ccc21")
"> 100 µM (inactive)"

* * *

Test system: MCF7
Protocol details: NCI tumour cell line growth inhibition, 48 h
Active and inactive are the calls of the source. Rule as the data show it: active = GI50 up to about 1.1 µM and inactive = higher.
Classes used: active, inactive

>>> cat("C#CCn1c(=O)ccn(/C(=C/C(=O)OCC)C(=O)OCC)c1=O")
"inactive"
>>> cat("Cc1ccc2c(c1C)CC1(Cc3c(ccc4c3CCC4)C1=O)C2=O (configuration not stated)")
"inactive"
>>> cat("CCCCOC(=O)C(=O)C(CC(CC)C(=O)c1ccccc1)C(=O)C=C(C)C (configuration not stated)")
"inactive"
>>> cat("NC(=O)Nc1ccc(S(=O)(=O)Nc2ccc(S(N)(=O)=O)cc2)cc1")
"inactive"
>>> cat("O=P1(O)c2ccccc2Nc2cc(C(F)(F)F)ccc21")
"inactive"
>>> cat("N=c1ccn2c(n1)OC1C(OP(=O)(O)O)C(CO)OC12 (configuration not stated)")
"inactive"
>>> cat("COC(COC(=O)N1CCN(C=O)CC1)C1=C(N2CC2)C(=O)C(C)=C(N2CC2)C1=O (configuration not stated)")
"active"
>>> cat("COc1cc2c(cc1OC)-c1[nH]c3ccc([N+](=O)[O-])cc3c1CC(=O)N2")
"inactive"
>>> cat("CCC1(O)CC(OC2CC(N(C)C)C(OC3CC(O)C(OC4OC(C)C(=O)C=C4N)C(C)O3)C(C)O2)c2c(cc3c(c2O)C(=O)c2c(O)cccc2C3=O)C1C(=O)OC (configuration not stated)")
"active"
>>> cat("CC(C)=CC(=O)OC1C2C(C)C(=O)OC2C(O)C(C)C2C=CC(=O)C21C (configuration not stated)")
"inactive"
>>> cat("CN(C)CCOc1ccc(I)cc1Cc1ccccc1")
"inactive"
>>> cat("CC(C)(C)n1c(=O)n(C(=O)C(Cl)(Cl)Cl)n(C(=O)C(Cl)(Cl)Cl)c1=O")
"inactive"
>>> cat("CC(C)OC(=O)c1cc(NC(=S)OC(C)C)ccc1Cl")
"inactive"
>>> cat("O=S(=O)(O)CCSSCCS(=O)(=O)O")
"inactive"
>>> cat("CCCCn1c(-c2ccc([N+](=O)[O-])cc2)cs/c1=N/N=C1\\C(=O)Nc2ccc(Br)cc21")
"inactive"
>>> cat("COC(=O)C(Cc1ccccc1)NP(=O)(O)OCC1OC(n2cc(F)c(=O)[nH]c2=O)CC1O (configuration not stated)")
"active"
>>> cat("COC(=O)CSC1CC(=O)c2c(Cl)sc(Cl)c21 (configuration not stated)")
"inactive"
>>> cat("COc1cc(/C=C2/SC(c3ccccc3)N(c3cccc(Cl)c3)C2=O)cc(OC)c1OC (configuration not stated)")
"inactive"
>>> cat("CC(C)(C)CNCCO")
"inactive"
>>> cat("COc1ccc(OC)c2sc(N3C(=O)/C(=C/c4ccc(Cl)cc4)N=C3c3ccccc3)nc12")
"inactive"
>>> cat("CN(C)CCNC(=O)c1cccc(N(C)C(=O)c2ccccc2)c1[N+](=O)[O-]")
"inactive"
>>> cat("C=C(Cl)COC(=O)Nc1cccc(Cl)c1")
"inactive"

* * *

Tested on: NCI-H460
Protocol details: NCI tumour cell line growth inhibition, 48 h
The source made the active and inactive calls. Cut-off read from the data, not from the text of the source: active = GI50 up to about 1.1 µM and inactive = higher.
Classes used: 1 (yes) = active, 0 (no) = inactive

>>> cat("Cc1ccc(-n2c(=O)c3nn4c(=O)n(-c5ccc(C)cc5)c(=O)c4nn3c2=O)cc1")
"0 (no)"
>>> cat("COC(=O)c1csc([C@@H](OC(=O)[C@H](C)[C@H](CCCC(C)(Cl)Cl)OC(=O)c2csc([C@H](O)CO)n2)C(C)C)n1")
"0 (no)"
>>> cat("N#CC(NNC(=O)c1ccccc1O)c1ccccc1O (centres undefined)")
"0 (no)"
>>> cat("OC1OC2COC(c3ccccc3)OC2C(O)C1O (centres undefined)")
"0 (no)"
>>> cat("C/C(=N\\N(C)C)c1sc(-n2nc(-c3ccccc3)cc2-c2ccccc2)nc1C")
"0 (no)"
>>> cat("COc1ccc(/C=C/C(=N\\NC(=O)c2ccccc2)c2sc(Nc3ccc([N+](=O)[O-])cc3)nc2C)cc1OC")
"0 (no)"
>>> cat("CC[C@H]1C=CCC[C@@]2(C[C@@H]3CC[C@@H]4[C@H](C(=O)OCCCCCCCCCCCCCCCC(=O)N(CCCNC(C)=O)C[C@H](CCNC(C)=O)OC(C)=O)[C@]5(CCC[C@@H](C)O5)NC(=[N+]34)N2)O1")
"1 (yes)"
>>> cat("CCC1(O)CC(CCN(Cc2ccccc2)C(=O)OCc2ccccc2)C(OCc2ccccc2)C1O (centres undefined)")
"0 (no)"
>>> cat("Cc1c(-c2ccccc2)[nH]c2cn[nH]c(=O)c12")
"0 (no)"
